Target: Bromodomain-containing protein 4 (Homo sapiens)
Assay: Inhibition of BRD4 in poly(I:C)-stimulated human SAECs TLR3-inducible CIG5 gene expression at 10 uM pre-incubated for 24 hrs before poly(I:C) stimulation for 4 hrs by qRT-PCR analysis relative to control
Think of 40% as a floor: if inhibition stands on it or above, it is Y; beneath it, N.

1. COc1cc(OC)c2c(=O)[nH]c(-c3cc(C)c(OC[C@@H](O)CN4CCN(C)CC4)c(C)c3)nc2c1; Y
2. Cc1cc(-c2nc3cc(-c4ccn(C)n4)ccc3c(=O)[nH]2)cc(C)c1O; Y
3. Cc1cc(-c2nc3ccc(Cl)cc3c(=O)[nH]2)cc(C)c1O; N
4. COc1cc(OC)c2c(=O)cc(-c3cc(C)c(OC[C@H](O)CN4CCCC4)c(C)c3)oc2c1; Y
5. Cc1cc(-c2nc3ccccc3c(=O)n2C)cc(C)c1O; N
6. Cc1cc(-c2nc3ccc(Br)cc3c(=O)[nH]2)cc(C)c1O; Y
7. COc1cc(OC)c2c(=O)cc(-c3cc(C)c(OC[C@H](O)CN4CCCCC4)c(C)c3)oc2c1; Y
8. COc1cc(OC)c2c(=O)[nH]c(-c3cc(C)c(OC[C@@H]4CO4)c(C)c3)nc2c1; Y
9. COc1cc(OC)c2c(=O)cc(-c3cc(C)c(OC[C@H](O)CN4CCC(F)(F)CC4)c(C)c3)oc2c1; Y
10. Cc1cc(-c2nc3ccc(F)cc3c(=O)[nH]2)cc(C)c1O; N
11. COc1cc(OC)c2c(=O)[nH]c(-c3ccc(C(F)(F)F)cc3)nc2c1; Y
12. COc1cc(-c2nc3ccccc3c(=O)[nH]2)cc(OC)c1O; Y
13. COc1cc(OC)c2c(=O)[nH]c(-c3cc(C)c(OCCO)c(C)c3)nc2c1; Y
14. COc1cc(OC)c2c(=O)cc(-c3cc(C)c(OC[C@@H](O)CN4CCCCC4)c(C)c3)oc2c1; Y
15. COc1cc(OC)c2c(=O)[nH]c(-c3ccc(O)cc3)nc2c1; Y
16. Cc1cc(-c2nc3cc(Br)ccc3c(=O)[nH]2)cc(C)c1O; Y
17. O=c1[nH]c(-c2cc(F)c(O)cc2F)nc2ccccc12; N
18. C=CCOc1c(C)cc(-c2cc(=O)c3c(OC)cc(OC)cc3o2)cc1C; Y
19. COc1cc(OC)c2c(=O)cc(-c3cc(C)c(OC[C@H](O)CN4CCOCC4)c(C)c3)oc2c1; Y
20. COc1cc(OC)c2c(=O)cc(-c3cc(C)c(OCCO)c(C)c3)oc2c1; Y
21. COc1cc(OC)c2c(=O)[nH]c(-c3ccc(O)cc3Cl)nc2c1; Y
22. COc1cc(OC)c2c(=O)cc(-c3cc(C)c(OC[C@@H](F)CN4CCCCC4)c(C)c3)oc2c1; Y
23. Cc1cc(-c2nc3cccc(F)c3c(=O)[nH]2)cc(C)c1O; N

* * *

Measured pIC50, listed per entry for reference.
Molecular target: Bromodomain-containing protein 4 (Homo sapiens)
Test: Inhibition of BRD4 in poly(I:C)-stimulated human SAECs TLR3-inducible IL-6 gene expression pre-incubated for 24 hrs before poly(I:C) stimulation for 4 hrs by qRT-PCR analysis
pIC50: −log10 of the molar value.
TEST READOUT: pIC50

1. COc1cc(OC)c2c(=O)cc(-c3cc(C)c(OC[C@H](O)CN4CCCC4)c(C)c3)oc2c1; 6.01
2. COc1cc(OC)c2c(=O)cc(-c3cc(C)c(OC[C@H](O)CN4CCCCC4)c(C)c3)oc2c1; 5.96
3. COc1cc(OC)c2c(=O)cc(-c3cc(C)c(OC[C@@H](O)CN4CCCCC4)c(C)c3)oc2c1; 6.27
4. COc1cc(OC)c2c(=O)cc(-c3cc(C)c(OCCO)c(C)c3)oc2c1; 5.55
5. COc1cc(OC)c2c(=O)[nH]c(-c3cc(C)c(OC[C@@H](O)CN4CCN(C)CC4)c(C)c3)nc2c1; 5.46
